target of assay: HLA B*5301 (Homo sapiens, UniProt P01889, A329T/A93T/A95T/C349S/D201E/D98Y/E176V/E187L/E204Q/E69T/G107R/I218V/K202T/L105A/L119I/N104I/Q94N/R106L/R155S/R180L/S101N/S121R/S35A/S48A/T118I/V127L/V306I/V36M/Y140S/Y91F)
Type: binding
Record form. Attribute: Normalized average relative binding affinity(ARB). Fill in for each entry.
Answers are plain numbers.

See these solved cases before continuing.
[
  {
    "record sequence": "XXXXXXGXX [3064.0126]",
    "value reported": 0.058
  },
  {
    "record sequence": "XXXTXXXXX [3064.0077]",
    "value reported": 0.25
  },
  {
    "record sequence": "XXXXXXCXX [3064.0122]",
    "value reported": 0.17
  },
  {
    "record sequence": "XXXXVXXXX [3064.0098]",
    "value reported": 0.18
  }
]

Please report Normalized average relative binding affinity(ARB) for every entry that follows.
1. XXXXXXXKX [3064.0149]
2. XXXXXTXXX [3064.0117]
3. XXXXXXXTX [3064.0157]
4. XXXXXXXMX [3064.0151]
5. XXXPXXXXX [3064.0073]
6. XXXMXXXXX [3064.0071]

Return:
1: 0.78; 2: 0.30; 3: 0.22; 4: 0.33; 5: 0.023; 6: 0.46

====

target of assay: HLA B*5401 (Homo sapiens, UniProt P01889, A329T/C349S/D138N/D201E/E176V/E187T/E204Q/E69G/I76V/K202T/L119W/R155S/R180L/S121T/S35A/S48A/V127L/V306I/V36M/Y140L)
Assay type: binding
The threshold is inclusive: Normalized average relative binding affinity (ARB), HLA B*5401 of exactly 0.01 counts as Condition met; values below receive Condition not met.

Enquiry: Quick check, Normalized average relative binding affinity (ARB), HLA B*5401 >= 0.01? XVXXXXXXX [3064.0038]
Return: Condition met

Enquiry: Quick check, Normalized average relative binding affinity (ARB), HLA B*5401 >= 0.01? EXXXXXXXX [3064.0004]
Return: Condition met

====

target of assay: HLA A*3201 (Homo sapiens, UniProt P04439, A270S/D101S/D185E/E176V/E277Q/F133L/G103R/G107R/G231S/H175R/I121M/I218V/I322F/K168Q/L105A/L300P/L318F/M331R/P208A/P217A/Q94H/R106L/R138Q/S129P/T104I/T323A/T345S/V100E/V321M/V358M)
experimental protocol: biochemical
Assay type: binding
Where a SMILES comes first, the peptide text is derived from it.
Rule: IC50 below 2 nM gives MET, anything at or above gives NOT MET.

[
  {
    "molecule": "CC[C@H](C)[C@H](N)C(=O)N[C@H](C(=O)N[C@@H](CC(C)C)C(=O)N[C@H](C(=O)N[C@@H](CC(N)=O)C(=O)N[C@H](C(=O)N[C@H](C(=O)N[C@@H](CC(N)=O)C(=O)N[C@H](C(=O)O)[C@@H](C)CC)C(C)C)C(C)C)[C@@H](C)O)[C@@H](C)O [3102.0320] (H-ITLTNVVNI-OH)",
    "label class": "NOT MET"
  },
  {
    "molecule": "CC[C@H](C)[C@H](NC(=O)[C@H](CO)NC(=O)[C@@H](NC(=O)CNC(=O)[C@H](Cc1ccccc1)NC(=O)[C@H](CO)NC(=O)[C@H](CC(N)=O)NC(=O)[C@H](CC(C)C)NC(=O)[C@@H](N)CCCCN)C(C)C)C(=O)O [3102.0496] (H-KLNSFGVSI-OH)",
    "label class": "MET"
  },
  {
    "molecule": "CC[C@H](C)[C@H](NC(=O)[C@H](CO)NC(=O)[C@@H](N)CC(C)C)C(=O)N[C@@H](Cc1ccccc1)C(=O)N[C@@H](Cc1ccccc1)C(=O)N[C@@H](Cc1ccc(O)cc1)C(=O)N[C@@H](CO)C(=O)N[C@@H](CO)C(=O)N[C@@H](Cc1ccccc1)C(=O)O [3102.1177] (H-LSIFFYSSF-OH)",
    "label class": "NOT MET"
  },
  {
    "molecule": "CC[C@H](C)[C@H](NC(=O)[C@@H]1CCCN1C(=O)[C@H](CC(C)C)NC(=O)[C@@H](NC(=O)[C@H](Cc1ccc(O)cc1)NC(=O)[C@H](Cc1ccccc1)NC(=O)[C@H](CCSC)NC(=O)[C@H](CC(C)C)NC(=O)[C@@H](N)Cc1c[nH]cn1)[C@@H](C)O)C(=O)O [3102.0397] (H-HLMFYTLPI-OH)",
    "label class": "MET"
  },
  {
    "molecule": "CC[C@H](C)[C@H](NC(=O)[C@@H](NC(=O)[C@H](CC(C)C)NC(=O)[C@H](CO)NC(=O)[C@H](CCC(N)=O)NC(=O)[C@H](Cc1ccccc1)NC(=O)[C@H](CC(=O)O)NC(=O)[C@H](CCC(N)=O)NC(=O)[C@H](C)N)[C@@H](C)O)C(=O)O [3102.0299] (H-AQDFQSLTI-OH)",
    "label class": "NOT MET"
  }
]

Enquiry: Hello, I'm reviewing records and need to know if IC50 of CC[C@H](C)[C@H](NC(=O)[C@H](CC(N)=O)NC(=O)[C@H](CCSC)NC(=O)[C@@H](NC(=O)[C@@H](N)CCSC)[C@@H](C)O)C(=O)N[C@H](C(=O)N[C@@H](CC(N)=O)C(=O)N[C@@H](Cc1ccccc1)C(=O)N[C@@H](Cc1ccccc1)C(=O)O)C(C)C [3102.0518] (H-MTMNIVNFF-OH) is below 2 nM. Could you check?
Return: MET

Enquiry: Hello, I'm reviewing records and need to know if IC50 of CC[C@H](C)[C@H](NC(=O)[C@H](CO)NC(=O)[C@@H](NC(=O)[C@H](C)NC(=O)[C@@H](NC(=O)[C@H](CC(C)C)NC(=O)[C@H](CC(C)C)NC(=O)[C@@H](NC(=O)[C@@H](N)CCCCN)[C@@H](C)CC)C(C)C)C(C)C)C(=O)O [3102.0330] (H-KILLVAVSI-OH) is below 2 nM. Could you check?
Return: MET

Enquiry: Hello, I'm reviewing records and need to know if IC50 of CC[C@H](C)[C@H](NC(=O)[C@@H]1CCCN1C(=O)[C@H](CCC(=O)O)NC(=O)[C@H](CCC(=O)O)NC(=O)[C@H](CC(C)C)NC(=O)[C@H](Cc1ccc(O)cc1)NC(=O)[C@H](Cc1ccccc1)NC(=O)[C@H](CC(C)C)NC(=O)[C@@H](N)CCSC)C(=O)O [3102.0881] (H-MLFYLEEPI-OH) is below 2 nM. Could you check?
Return: NOT MET

Enquiry: Hello, I'm reviewing records and need to know if IC50 of CC[C@H](C)[C@H](NC(=O)[C@H](C)NC(=O)[C@H](CC(N)=O)NC(=O)[C@@H](NC(=O)[C@@H]1CCCN1C(=O)[C@H](CCC(=O)O)NC(=O)[C@@H](NC(=O)[C@H](CC(C)C)NC(=O)[C@@H](N)CCCCN)[C@@H](C)CC)C(C)C)C(=O)O [3102.0321] (H-KLIEPVNAI-OH) is below 2 nM. Could you check?
Return: NOT MET

Enquiry: Hello, I'm reviewing records and need to know if IC50 of CC[C@H](C)[C@H](NC(=O)[C@@H](NC(=O)[C@@H](N)CC(C)C)[C@@H](C)CC)C(=O)N[C@H](C(=O)N[C@@H](CCCCN)C(=O)N[C@H](C(=O)N[C@@H](Cc1ccccc1)C(=O)N[C@@H](CO)C(=O)N[C@@H](Cc1ccccc1)C(=O)O)C(C)C)[C@@H](C)O [3102.1011] (H-LIITKVFSF-OH) is below 2 nM. Could you check?
Return: NOT MET

Enquiry: Hello, I'm reviewing records and need to know if IC50 of CC(C)C[C@H](NC(=O)[C@@H](N)C(C)C)C(=O)N[C@@H](Cc1ccccc1)C(=O)N[C@@H](CCC(=O)O)C(=O)N[C@H](C(=O)N[C@@H](Cc1ccccc1)C(=O)N[C@H](C(=O)N[C@H](C(=O)N[C@@H](Cc1ccccc1)C(=O)O)C(C)C)C(C)C)C(C)C [3102.0818] (H-VLFEVFVVF-OH) is below 2 nM. Could you check?
Return: NOT MET

Enquiry: Hello, I'm reviewing records and need to know if IC50 of CC[C@H](C)[C@H](NC(=O)[C@H](CC(C)C)NC(=O)[C@H](Cc1c[nH]cn1)NC(=O)[C@H](Cc1ccccc1)NC(=O)[C@H](CC(N)=O)NC(=O)[C@H](Cc1ccccc1)NC(=O)[C@@H](NC(=O)[C@@H](NC(=O)[C@@H](N)CCCNC(=N)N)[C@@H](C)O)[C@@H](C)CC)C(=O)O [3102.0342] (H-RTIFNFHLI-OH) is below 2 nM. Could you check?
Return: NOT MET

Enquiry: Hello, I'm reviewing records and need to know if IC50 of CC[C@H](C)[C@H](N)C(=O)N[C@H](C(=O)N[C@H](C(=O)N[C@@H](Cc1ccccc1)C(=O)N[C@@H](Cc1ccccc1)C(=O)N[C@H](C(=O)N[C@H](C(=O)N[C@@H](CC(C)C)C(=O)N[C@H](C(=O)O)[C@@H](C)CC)C(C)C)[C@@H](C)CC)[C@@H](C)CC)[C@@H](C)CC [3102.0435] (H-IIIFFIVLI-OH) is below 2 nM. Could you check?
Return: NOT MET
